Sourced from patent US20090149395A1

- ASSAY_REMARKS: physchem
- PROTOCOL_CONDITIONS: organic solvent or mixture
MEASURED_METRIC: solubility

Which solubility is listed for CC1\C=C/C=C\C=C/C=C\C=C/C(OC2OCC(O)C(O)C2N)C(C)(O)/C=C/C=C\C=C/C=C/C(=O)NC1 (stereo not shown) [NOVO4] ?
> 5000 µg/mL

###

- ASSAY_REMARKS: physchem
- PROTOCOL_CONDITIONS: aqueous with cosolvent or surfactant or cyclodextrin
MEASURED_METRIC: solubility (µg/mL)
Number only, in µg/mL; omit the unit.

Which solubility value is on record for CC1\C=C/C=C\C=C/C=C\C=C/C(OC2OCC(O)C(O)C2N)C(C)(O)/C=C/C=C\C=C/C=C/C(=O)NC1 (stereo not shown) ?
300
